Experiment: label from the status in PepcDB records
reported-property: protein production

MIELLFPGWLAGILLAIAAGPLGSFVVWRRMSYFGDTLAHASLLGVAFGLLLNINLFSAVIAVTLILALGLVWLERRPYLAVDTLLGIMAHSALSLGLVVVSLMNNVRVDLMAYLFGDLLSVTTEDLWVIGAGVIIVVAVMRWQWRALLSMTISPELAHVDGVKIQRTKLLLMLTTALTIGIAMKFVGALIITSLLIIPAASARRFARTPEQMAIIAVMIGMIAVTGGLAFSAGYNTPAGPSVVLCASLLFIVSLLKPQPA	failed
MIEGHGDDSYKYRHPIRSNFSSNVYNKVNLDGLRAHLCGRISAISAYPEPEPYTLEARLADRHALPAASVCVTNGATEAIYLIAQTFRGTNTAILMPTFSEYADACRMHGHKVTSLYTLDAVPEDVRMVWLCNPNNPTGEVRDKKYLTELIAKHPRVCFVIDQSYEYFTLKELFTAQEAAGFPNVILLHSMTKRYAIPGLRLGYVTAHPGLIGRLRTNRMPWSVNQLAIEAGLYLLSEGIPAGLSMKDYLAECARLKSSLEAIGGLEVWPTDTHFMLVCLRFGKAAALKEYLAREEGILIRDASNFEGLDERFFRIATQTPEENDELVGAIAKWMAE	failed
TTQNELLNRIAELETKVAFQDNVIEELNQVLIHHQFVLDKLQTQVRHFANKFKNIQSSNVASQAEETPPPHY	failed
